Target: human SirT1 (Homo sapiens)
Construct: purchased Biomol SE-239
Sequence (Q96EB6 1-747): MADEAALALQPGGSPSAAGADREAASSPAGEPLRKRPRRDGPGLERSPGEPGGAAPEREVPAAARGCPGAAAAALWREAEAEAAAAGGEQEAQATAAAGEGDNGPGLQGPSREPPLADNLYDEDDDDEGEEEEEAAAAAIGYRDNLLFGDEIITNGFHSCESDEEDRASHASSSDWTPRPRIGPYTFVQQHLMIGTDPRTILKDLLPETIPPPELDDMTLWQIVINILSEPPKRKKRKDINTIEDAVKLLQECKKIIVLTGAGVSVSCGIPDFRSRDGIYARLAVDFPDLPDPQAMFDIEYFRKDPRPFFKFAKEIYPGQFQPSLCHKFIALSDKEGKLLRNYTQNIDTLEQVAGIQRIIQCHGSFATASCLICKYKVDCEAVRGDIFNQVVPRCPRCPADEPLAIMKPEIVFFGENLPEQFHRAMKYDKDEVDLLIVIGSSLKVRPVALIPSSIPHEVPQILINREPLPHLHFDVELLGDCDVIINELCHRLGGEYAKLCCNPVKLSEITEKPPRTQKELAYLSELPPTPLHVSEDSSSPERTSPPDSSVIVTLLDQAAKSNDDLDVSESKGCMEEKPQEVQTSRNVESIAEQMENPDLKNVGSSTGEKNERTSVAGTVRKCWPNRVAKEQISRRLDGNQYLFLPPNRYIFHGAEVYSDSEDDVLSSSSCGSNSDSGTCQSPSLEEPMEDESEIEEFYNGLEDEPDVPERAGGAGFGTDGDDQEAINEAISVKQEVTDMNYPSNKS
Assay: SirT1 Fluor de Lys enzymatic deacetylase assay
Format: biochemical
Settings: Table 1, Activity of Triazoles (conc. in μM); read-out: SirT1
// reported IC50 per item

compound: Cc1ccc(-n2c(Cc3ccccc3)nnc2SCC(N)=O)cc1 [Compound 3]
systemName: human SirT1 (Homo sapiens)
IC50: 1 to 10 µM
--
compound: NC(=O)CSc1nnc(Cc2c[nH]c3ccccc23)n1Cc1ccccc1 [Compound 1]
systemName: human SirT1 (Homo sapiens)
IC50: 1 to 10 µM
--
compound: COc1ccc(-n2c(COc3cccc4ccccc34)nnc2SCC(N)=O)cc1 [Compound 2]
systemName: human SirT1 (Homo sapiens)
IC50: 1 to 10 µM
--
compound: Cc1ccc(-n2c(SCC(N)=O)nnc2-c2ccccc2Br)cc1 [Compound 4]
systemName: human SirT1 (Homo sapiens)
IC50: > 10 µM
